Measured values drawn from PubChem BioAssay (NCATS) for this set.

Assay: qHTS for Inhibitors of the Functional Ribonucleoprotein Complex (vRNP) of Lymphocytic Choriomeningitis Arenaviruses (LCMV): Viability assay - alamar blue signal for LCMV Primary Screen (AID 1347085); further: nearly all actives have a fitted effect of over 80% in size
Conditions: alamar blue viability counter-screen, LCMV vRNP screen cells; series mostly up to 57.5 µM
Results filed as inconclusive are left out. Calls of active or inactive are those of the source. The call rests on the fitted dose curve; tested in HEK293 reporter line.
Outcome codes: active, inactive

| MOLECULE | CATEGORY |
| --- | --- |
| O=c1c(O)c(-c2ccc(O)c(O)c2)oc2cc(O)cc(O)c12 | inactive |
| CO[C@@H](C(=O)N1Cc2[nH]nc(NC(=O)c3ccc(N4CCN(C)CC4)cc3)c2C1)c1ccccc1 | active |
| O=C(O)c1ccc2[nH]cc(CCCCN3CC=C(c4ccccc4)CC3)c2c1 | inactive |
| NCCC(O)(P(=O)(O)O)P(=O)(O)O | inactive |
| NP(N)(=O)NC(=O)c1ccc(F)cc1 | inactive |
| CN(C)[C@@H]1C(=O)C(C(N)=O)=C(O)[C@@]2(O)C(=O)C3=C(O)c4c(O)cccc4[C@@](C)(O)[C@H]3C[C@@H]12 | inactive |
| CC(C)(C)NC(=O)[C@@H]1CN(Cc2cccnc2)CCN1C[C@@H](O)C[C@@H](Cc1ccccc1)C(=O)N[C@H]1c2ccccc2C[C@H]1O | inactive |
| Cc1nc(-c2ccc(OCC(C)C)c(C#N)c2)sc1C(=O)O | inactive |
| CN(C)CCOC(c1ccc(Cl)cc1)c1ccccn1 (stereo unspecified) | inactive |
| CCC(C(N)=O)N1CCCC1=O (stereo unspecified) | inactive |
| CCOC(=O)[C@H](CCc1ccccc1)N[C@@H](C)C(=O)N1Cc2cc(OC)c(OC)cc2C[C@H]1C(=O)O | inactive |
| COc1ccc(-c2cc(=S)ss2)cc1 | inactive |
| NC(=Nc1ccccc1)Nc1ccccc1 | inactive |
| NNc1nncc2ccccc12 | inactive |
| O=C1N=C(O)CN1/N=C/c1ccc(-c2ccc([N+](=O)[O-])cc2)o1 | inactive |
| CCN(CCO)CCCC(C)Nc1ccnc2cc(Cl)ccc12 (stereo unspecified) | inactive |
| C[C@H]1O[C@H](O[C@H]2[C@H](O)[C@@H](O)[C@@H](O[C@H]3[C@H](O)[C@@H](O)[C@H](O)O[C@@H]3CO)O[C@@H]2CO)[C@H](O)[C@@H](O)[C@@H]1N[C@H]1C=C(CO)[C@@H](O)[C@H](O)[C@H]1O | inactive |
| CCCC1CCCCN1 (stereo unspecified) | inactive |
| C[C@]12C/C(=C/O)C(=O)C[C@@H]1CC[C@@H]1[C@@H]2CC[C@@]2(C)[C@H]1CC[C@]2(C)O | inactive |
| CC[N+](CC)(CC)CC | inactive |
| COc1cc2nc(N3CCN(C(=O)c4ccco4)CC3)nc(N)c2cc1OC | inactive |

* * *

Experiment: Quantitative High-Throughput drug screen in 47 multiple myeloma cell lines against the NCATS MIPE library collection: Karpas25_ECACC cell viability assay (AID 1918968; further: nearly all actives have a fitted effect of over 35% in size)
Conditions: Karpas25 myeloma viability, CellTiter-Glo ATP, 48 h; series mostly up to 45.8 µM
Excerpt: PI: Beverly A. Mock Ph.D. Laboratory of Cancer Biology and Genetics, Center for Cancer Research, National Cancer Institute, National Institute of Health, Bethesda, Maryland […] 5; Detector; 425V; Luminescence; Viewlux PerkinElmer. […] 1. […] Briefly, the corresponding myeloma cell lines were screened in 1,536-well plates with 500 cells, 5-uL per well for inhibition of cell viability (assessed by measuring ATP levels with CellTiterGlo). […]
Results filed as inconclusive are left out. Activity calls are given as the source filed them. The call rests on the fitted dose curve; in most records, active means well fitted cell-killing curve with a large enough effect; inconclusive means small, poorly fitted or top-dose-only effect, or effect the other way; inactive means no such curve, though single readings can be large or run the other way.
Outcome codes: t = active, f = inactive

| MOLECULE | CATEGORY |
| --- | --- |
| CN1CCN(C(=O)O[C@H]2c3nccnc3C(=O)N2c2ccc(Cl)cn2)CC1 | f |
| CNC(=O)N1N=C(c2ccc(N)cc2)c2cc3c(cc2CC1C)OCO3 (stereo unspecified) | t |
| COc1ccc(C(CN(C)C)C2(O)CCCCC2)cc1 (stereo unspecified) | f |
| COC[C@H]1OC(=O)c2coc3c2[C@@]1(C)C1=C(C3=O)C2CCC(=O)[C@@]2(C)C[C@H]1OC(C)=O (stereo partly specified) | t |
| C=C(C)[C@H]1Cc2c(ccc3c2O[C@@H]2COc4cc(OC)c(OC)cc4[C@@H]2C3=O)O1 | t |
| N[C@@H](Cc1ccc(N(CCCl)CCCl)cc1)C(=O)O | t |
| O=c1[nH]c2ccccc2n1CCCN1CCC(n2c(=O)[nH]c3cc(Cl)ccc32)CC1 | t |
| CNC(=O)c1ccc(N2C(=S)N(c3ccc(C#N)c(C(F)(F)F)c3)C(=O)C23CCC3)cc1F | t |
| CC(O)(CS(=O)(=O)c1ccc(F)cc1)C(=O)Nc1ccc(C#N)c(C(F)(F)F)c1 (stereo unspecified) | t |
| CN(C)[C@@H]1C(=O)C(C(N)=O)=C(O)[C@@]2(O)C(=O)C3=C(O)c4c(O)cccc4[C@@](C)(O)[C@H]3C[C@@H]12 | f |
| CCCC(C)(COC(N)=O)COC(=O)NC(C)C (stereo unspecified) | f |
